Target: LRRK2(G2019S mutation, GST-LRRK2(amino acids 970-2527)) (Homo sapiens (Human), UniProt Q5S007, G2019S)
Sequence (Q5S007 970-2527 G2019S): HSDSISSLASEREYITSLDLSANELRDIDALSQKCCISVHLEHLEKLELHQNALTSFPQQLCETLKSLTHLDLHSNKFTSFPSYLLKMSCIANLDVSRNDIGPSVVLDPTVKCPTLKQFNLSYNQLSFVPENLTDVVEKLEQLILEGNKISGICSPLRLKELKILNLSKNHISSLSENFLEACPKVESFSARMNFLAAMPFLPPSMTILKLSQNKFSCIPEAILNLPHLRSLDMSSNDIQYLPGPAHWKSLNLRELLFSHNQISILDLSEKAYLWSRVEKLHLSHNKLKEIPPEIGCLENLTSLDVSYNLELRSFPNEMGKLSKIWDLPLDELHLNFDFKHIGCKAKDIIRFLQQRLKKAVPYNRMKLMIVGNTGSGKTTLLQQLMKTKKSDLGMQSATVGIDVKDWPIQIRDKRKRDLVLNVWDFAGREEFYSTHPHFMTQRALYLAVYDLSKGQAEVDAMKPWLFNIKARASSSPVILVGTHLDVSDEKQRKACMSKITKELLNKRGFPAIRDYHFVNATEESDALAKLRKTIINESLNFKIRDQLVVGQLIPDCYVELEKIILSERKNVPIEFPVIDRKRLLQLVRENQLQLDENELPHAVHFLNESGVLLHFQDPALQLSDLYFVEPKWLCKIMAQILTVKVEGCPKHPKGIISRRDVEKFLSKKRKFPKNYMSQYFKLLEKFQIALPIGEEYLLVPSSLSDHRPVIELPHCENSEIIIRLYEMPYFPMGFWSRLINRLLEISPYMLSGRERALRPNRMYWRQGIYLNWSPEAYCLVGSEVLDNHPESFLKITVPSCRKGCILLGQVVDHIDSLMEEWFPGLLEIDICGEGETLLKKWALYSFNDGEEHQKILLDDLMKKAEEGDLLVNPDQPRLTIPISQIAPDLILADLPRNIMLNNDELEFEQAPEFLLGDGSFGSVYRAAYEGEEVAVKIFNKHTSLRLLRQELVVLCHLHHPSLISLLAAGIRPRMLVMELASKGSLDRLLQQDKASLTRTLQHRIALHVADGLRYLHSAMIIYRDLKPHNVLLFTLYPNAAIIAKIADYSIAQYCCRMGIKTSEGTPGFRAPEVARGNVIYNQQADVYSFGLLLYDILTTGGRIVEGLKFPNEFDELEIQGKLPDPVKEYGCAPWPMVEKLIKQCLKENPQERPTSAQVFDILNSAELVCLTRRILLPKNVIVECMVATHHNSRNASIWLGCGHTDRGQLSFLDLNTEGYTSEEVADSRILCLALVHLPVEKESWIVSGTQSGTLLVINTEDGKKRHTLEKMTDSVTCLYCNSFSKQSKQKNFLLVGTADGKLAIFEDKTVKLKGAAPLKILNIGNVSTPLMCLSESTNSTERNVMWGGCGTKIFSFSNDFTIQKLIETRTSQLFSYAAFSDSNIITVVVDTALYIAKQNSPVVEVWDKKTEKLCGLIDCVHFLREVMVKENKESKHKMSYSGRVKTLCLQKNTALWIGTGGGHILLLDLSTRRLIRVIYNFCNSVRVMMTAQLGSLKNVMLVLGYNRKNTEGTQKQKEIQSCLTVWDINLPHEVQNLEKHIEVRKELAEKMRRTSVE
Assay: LRRK2 Km ATP LanthaScreen Assay
Format: biochemical
Conditions: Table U
parameter: IC50 (nM)
Hi! Could you send only the number? It should be in nM, unit omitted.

Worked examples, 3 compounds total:
compound	IC50, nM
CC1(C)CC(=O)C=C(c2ccc3[nH]nc(-c4cc(N5CCOCC5)ncn4)c3c2)C1 [Example U11]	1.63
FC1(F)CCN(c2cc(-c3n[nH]c4ccc(-c5cn[nH]c5)cc34)ncn2)CC1 [Example U7]	5.69
CC(C)N1CCN(c2cc(-c3n[nH]c4ccc(-c5ccn[nH]5)cc34)ncn2)CC1 [Example U25]	2.34

Consider FC1(F)CCN(c2cc(-c3n[nH]c4ccc(-c5ccsc5)cc34)ncn2)CC1 [Example U2] . Its measured IC50 is 348

Consider CC1(C)CC(=O)C=C(c2ccc3[nH]nc(-c4cc(N5CCC(F)(F)CC5)ncn4)c3c2)C1 [Example U5] . Its measured IC50 is 7.08

Consider FC1(F)CCN(c2cc(-c3n[nH]c4ccc(-c5cc[nH]n5)cc34)ncn2)CC1 [Example U6] . Its measured IC50 is 2.16

Consider O=C1C=C(c2ccc3[nH]nc(-c4cc(N5CCOCC5)ncn4)c3c2)CCC1 [Example U17] . Its measured IC50 is 1.63

Consider Clc1cc(-c2ccc3[nH]nc(-c4cc(N5CCOCC5)ncn4)c3c2)ccn1 [Example U18] . Its measured IC50 is 266

----------
Molecular target: LRRK2(G2019S mutation, GST-LRRK2(amino acids 970-2527)) (Homo sapiens (Human), UniProt Q5S007, G2019S)
Test: LRRK2 Km ATP LanthaScreen Assay
Format: biochemical
Conditions: Km ATP (184 μM ATP solution), G2019S LRRK2, mean IC50
parameter: IC50 (nM)
Hi! Could you send only the number? It should be in nM, unit omitted.

Consider CC(C)Oc1cc2c(-c3cc(N4C[C@H](O)[C@@H](O)[C@@H]4C)ncn3)n[nH]c2cc1F [Example D57] . Its measured IC50 is 15.5

----------
Target: LRRK2(G2019S mutation, GST-LRRK2(amino acids 970-2527)) (Homo sapiens (Human), UniProt Q5S007, G2019S)
Assay: LRRK2 Km ATP LanthaScreen Assay
Type: biochemical
Details: Km ATP (184 μM ATP solution), G2019S LRRK2, mean IC50
Entries and their pIC50 values follow.
In plain terms, pIC50 is the concentration in mol/L turned into minus its base-10 logarithm.

Worked examples, 7 compounds total:
compound	parameter	data value
Cn1cc(-c2ccc3[nH]nc(-c4cc(N5CCCC(C)(O)C5)ncn4)c3c2)cn1 (centres unmarked) [Example M8]	pIC50	8.10
COC[C@H](C)Oc1ccc2[nH]nc(-c3cc(N4CCC5(CC4)CC(=O)N(C)C5)ncn3)c2c1 [Example H10]	pIC50	8.54
Cn1cc(-c2ccc3[nH]nc(-c4cc(N5CCC(n6cccn6)C5)ncn4)c3c2)cn1 (centres unmarked) [Example M22]	pIC50	8.44
CN(C)[C@H]1CCN(c2cc(-c3n[nH]c4ccc(-c5cnn(C)c5)cc34)ncn2)C1 [Example M19]	pIC50	8.34
COCCNc1cc(-c2n[nH]c3ccc(OC(C)C)cc23)ncn1 [Example D16]	pIC50	7.58
CC(C)Oc1ccc2[nH]nc(-c3cc(N4C[C@@H](C)O[C@@H](C)C4)ncn3)c2c1 [Example J6]	pIC50	8.11
CCOc1ccc2[nH]nc(-c3cc(N4CCN(C)C(=O)C4)ncn3)c2c1 [Example F7]	pIC50	7.43

Consider COC[C@@H](C)Oc1ccc2[nH]nc(-c3cc(N4CCO[C@H](C)C4)ncn3)c2c1 [Example H3] . Its measured pIC50 is 7.45
